Listing of recorded GI50 by entry.
- Test system: MOLT-4
- Assay Remarks: NCI tumour cell line growth inhibition, 48 h
Activity calls are given as the source filed them. No stated cut-off is given here; in the data, active = GI50 up to about 1.1 µM and inactive = higher.

Completed entries (count: 10):
INSERT INTO assay_data (compound, assayed_target, value_measured) VALUES
  ('Nc1nc(SCCC/C=C/I)nc2c1ncn2C1OC(CO)C(O)C1O (centres undefined)', 'MOLT-4', '99.5 µM (inactive)'),
  ('Cc1ccccc1/N=N/c1cc(C)c(/N=N/c2c(O)ccc3ccccc23)cc1C', 'MOLT-4', '> 100 µM (inactive)'),
  ('Cc1cc(S(=O)(=O)N/C(=N/N)NCCc2ccccc2)c(S)cc1Cl', 'MOLT-4', '17.7 µM (inactive)'),
  ('O=c1n(/N=C/c2ccccc2)c(=O)n2n1C1C=CC2CC1', 'MOLT-4', '> 100 µM (inactive)'),
  ('CCC(=O)NCCc1c[nH]c2ccc(OC)cc12', 'MOLT-4', '> 100 µM (inactive)'),
  ('Cn1c(=O)c2c(nc3n(Cc4ccccc4)c(=O)c(Br)cn23)n(C)c1=O', 'MOLT-4', '> 100 µM (inactive)'),
  ('O=[N+]([O-])c1ccc(N2N=C(c3c(O)ccc4ccccc34)CC2c2ccc(Cl)cc2)c([N+](=O)[O-])c1 (centres undefined)', 'MOLT-4', '10.1 µM (inactive)'),
  ('COc1cc([C@@H]2c3cc4c(cc3[C@@H](OC(=O)c3ccc(N)cc3)C3COC(=O)[C@@H]32)OCO4)cc(OC)c1O (some centres undefined)', 'MOLT-4', '3.1 µM (inactive)'),
  ('CC1(C)Oc2ccc3c(=O)c(-c4ccccc4)c(-c4ccccc4)oc3c2C1C(=O)O (centres undefined)', 'MOLT-4', '48.3 µM (inactive)'),
  ('CCOC(=O)/C(=N/Nc1ccc(Cl)cc1)N1C(=S)N(C)N=C(C)C=C1S', 'MOLT-4', '> 100 µM (inactive)');

The recorded GI50 with MOLT-4 for COc1ccc(C(=O)C(Br)C(Br)C(=O)O)cc1 (centres undefined) was 14 µM (inactive)

// assay MOLT-4, entry C[C@H](C/C=C/C(C)(C)O)[C@H]1CC[C@@]2(C)[C@@H]3CC[C@H]4C(C)(C)[C@@H](O)CC[C@@]45C[C@@]35CC[C@]12C , GI50 value = 9.91 µM (inactive)

# O=C(c1nc2ccccc2nc1O)C(O)c1ccco1 (centres undefined) with MOLT-4: GI50 is > 100 µM (inactive)

Test item COc1ccc(-c2[nH]c3c4c(nc5c(c24)C(=O)CC(C)(C)C5)CC(C)(C)C3)cc1 ; MOLT-4; reported GI50 was 7.03 µM (inactive)

###

- System: RPMI-8226
- Assay Remarks: NCI tumour cell line growth inhibition, 48 h
The source made the active and inactive calls. Cut-off read from the data, not from the text of the source: active = GI50 up to about 1.1 µM and inactive = higher.
Classes to choose from: active, inactive

INSERT INTO results (compound, group_label) VALUES
  ('C=CCCC1CCCNC1=S (stereo not given)', 'inactive');

Which outcome was entered for the compound Cc1c2ccnc(-c3ccccc3)c2cc2c1[nH]c1ccccc12 in this test? inactive

What did the test return for CCN1CCC(O)(/C=C/c2ccc(Cl)c(Cl)c2)C(C(=O)/C=C/c2ccc(Cl)c(Cl)c2)C1 (stereo not given) ? active

Hey, what did the test say about Cc1cc(N)ccc1/N=N\c1ccc(S(=O)(=O)CCOS(=O)(=O)O)cc1 ? active

Outcome? CCCCCN(CCCCC)CC(C)(C)C(O)c1ccc(OC)c2ccccc12 (stereo not given) inactive
